# studySystem: Nicotiana tabacum protoporphyrinogen oxidase (NtPPO) (Nicotiana tabacum, UniProt O24164)
# Construct: gene PPXII
# Sequence (O24164 whole entry): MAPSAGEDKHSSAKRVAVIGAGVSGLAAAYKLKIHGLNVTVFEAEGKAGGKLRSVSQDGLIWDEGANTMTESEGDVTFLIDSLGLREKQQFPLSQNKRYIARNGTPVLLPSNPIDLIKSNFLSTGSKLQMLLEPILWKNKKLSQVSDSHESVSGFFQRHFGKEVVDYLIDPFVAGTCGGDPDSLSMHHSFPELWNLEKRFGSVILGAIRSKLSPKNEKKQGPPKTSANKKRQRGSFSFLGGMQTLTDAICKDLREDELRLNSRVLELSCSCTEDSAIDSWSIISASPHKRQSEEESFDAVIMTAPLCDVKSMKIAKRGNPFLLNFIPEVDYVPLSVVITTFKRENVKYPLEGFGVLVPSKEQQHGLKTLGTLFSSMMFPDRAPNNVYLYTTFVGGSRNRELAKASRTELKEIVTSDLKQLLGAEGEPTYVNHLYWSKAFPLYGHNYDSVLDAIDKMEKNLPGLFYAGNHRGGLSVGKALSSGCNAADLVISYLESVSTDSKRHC
# experiment: NtPPO inhibition in vitro, protoporphyrin IX formation by absorbance at […] nm
# Assay type: biochemical
propertyMeasured: pIC50
Numbers only, as −log10 of the molar value.

Inquiry: Record FC(F)(F)Oc1ccc(COc2ccc(-c3ncc(C(F)(F)F)cc3Cl)cc2)cc1 [7a] : what is its pIC50 with Nicotiana tabacum protoporphyrinogen oxidase (NtPPO) (Nicotiana tabacum, UniProt O24164)?
Reply text: 8.03
